conditions: in PEG-400, 298.15 K
Reported metric: solubility (mole fraction)

* CN1C(C(=O)Nc2ccccn2)=C(O)c2sccc2S1(=O)=O | 0.0098

---

conditions: in PEG-400, 303.15 K
Reported metric: solubility (mole fraction)

* CN1C(C(=O)Nc2ccccn2)=C(O)c2sccc2S1(=O)=O | 0.0134

---

details: in PEG-400, 313.15 K
Reported metric: solubility (mole fraction)

• CN1C(C(=O)Nc2ccccn2)=C(O)c2sccc2S1(=O)=O = 0.0228

---

details: in water, 298.15 K
Reported metric: solubility (mole fraction)

- CN1C(C(=O)Nc2ccccn2)=C(O)c2sccc2S1(=O)=O: 4.13e-06

---

settings: in PEG-400, 323.15 K
Reported metric: solubility (mole fraction)

- CN1C(C(=O)Nc2ccccn2)=C(O)c2sccc2S1(=O)=O: 0.035

---

details: in water, 323.15 K
Reported metric: solubility (mole fraction)

* CN1C(C(=O)Nc2ccccn2)=C(O)c2sccc2S1(=O)=O | 1.4e-05

---

details: in water, 313.15 K
Reported metric: solubility (mole fraction)

• CN1C(C(=O)Nc2ccccn2)=C(O)c2sccc2S1(=O)=O = 8.49e-06
